measurement.notes: Oral bioavailability in mouse at 10 mg/kg
Type: ADME, organism-based
setup.conditions: in vivo
// reported bioavailability per item
measurement.label: bioavailability (%)

[[record]]
entry_smiles = "O=C(c1cc(Cc2n[nH]c(=O)c3c2NCCC3)ccc1F)N1CCN(c2ccccn2)CC1"
recorded_value = 67

[[record]]
entry_smiles = "O=C(c1cc(Cc2n[nH]c(=O)c3c2NCCC3)ccc1F)N1CCN(c2ncccn2)CC1"
recorded_value = 36


* * *

System: Mus musculus
measurement.notes: Oral bioavailability in mouse at 10 mg/kg
Assay type: ADME, organism-based
setup.conditions: in vivo
// reported F per item
measurement.label: F (%)

[[record]]
entry_smiles = "O=C1CCCN1c1cc(Cc2n[nH]c(=O)c3c2CCCC3)ccc1F"
recorded_value = 13

[[record]]
entry_smiles = "O=C1CCCN1c1cc(Cc2n[nH]c(=O)c3c2NCCC3)ccc1F"
recorded_value = 106

[[record]]
entry_smiles = "O=C(c1cc(Cc2n[nH]c(=O)c3c2CCCC3)ccc1F)N1CCN(c2ccccn2)CC1"
recorded_value = 74

[[record]]
entry_smiles = "O=C(c1cc(Cc2n[nH]c(=O)c3c2CCCC3)ccc1F)N1CCN(c2ncccn2)CC1"
recorded_value = 48


* * *

measurement.notes: AUC (0 to 3 hrs) in mouse at 10 mg/kg, po
Assay type: ADME, organism-based
Set-up: time < 3 hr, dose 10 mg/kg, route oral
setup.conditions: plasma
// reported AUC(0-t) at 3 h per item
measurement.label: AUC(0-t) at 3 h (ng·h/mL)

[[record]]
entry_smiles = "O=C(c1cc(Cc2n[nH]c(=O)c3c2NCCC3)ccc1F)N1CCN(c2ccccc2)CC1"
measurement_label = "AUC(0-t) at 3 h"
recorded_value = 2900

[[record]]
entry_smiles = "O=C(c1cc(Cc2n[nH]c(=O)c3c2NCCC3)ccc1F)N1CCN(c2ncccn2)CC1"
measurement_label = "AUC(0-t) at 3 h"
recorded_value = 2900

[[record]]
entry_smiles = "O=C(c1cc(Cc2n[nH]c(=O)c3c2NCCC3)ccc1F)N1CCN(c2ccccn2)CC1"
measurement_label = "AUC(0-t) at 3 h"
recorded_value = 2900

[[record]]
entry_smiles = "CC(=O)N1CCN(C(=O)c2cc(Cc3n[nH]c(=O)c4c3NCCC4)ccc2F)CC1"
measurement_label = "AUC(0-t) at 3 h"
recorded_value = 70

[[record]]
entry_smiles = "O=C(c1cc(Cc2n[nH]c(=O)c3c2NCCC3)ccc1F)N1CCN(C(=O)C(F)(F)F)CC1"
measurement_label = "AUC(0-t) at 3 h"
recorded_value = 70

[[record]]
entry_smiles = "O=C1CCCC(=O)N1c1cc(Cc2n[nH]c(=O)c3c2NCCC3)ccc1F"
measurement_label = "AUC(0-t) at 3 h"
recorded_value = 70


* * *

// reported Vd per item
measurement.notes: Volume of distribution at steady state in mouse at 10 mg/kg, po and 3 mg/kg, iv
Assay type: ADME, organism-based
setup.conditions: in vivo, read-out: Vdss
measurement.label: Vd (L/kg)

[[record]]
entry_smiles = "O=C(c1cc(Cc2n[nH]c(=O)c3c2CCCC3)ccc1F)N1CCN(c2ncccn2)CC1"
recorded_value = 2.33

[[record]]
entry_smiles = "O=C(c1cc(Cc2n[nH]c(=O)c3c2NCCC3)ccc1F)N1CCN(c2ncccn2)CC1"
recorded_value = 4.99

[[record]]
entry_smiles = "O=C1CCCN1c1cc(Cc2n[nH]c(=O)c3c2CCCC3)ccc1F"
recorded_value = 4.78

[[record]]
entry_smiles = "O=C(c1cc(Cc2n[nH]c(=O)c3c2NCCC3)ccc1F)N1CCN(c2ccccn2)CC1"
recorded_value = 7.66

[[record]]
entry_smiles = "O=C(c1cc(Cc2n[nH]c(=O)c3c2CCCC3)ccc1F)N1CCN(c2ccccn2)CC1"
recorded_value = 9.48

[[record]]
entry_smiles = "O=C1CCCN1c1cc(Cc2n[nH]c(=O)c3c2NCCC3)ccc1F"
recorded_value = 5.25

